target: Ephrin type-A receptor 7 (Homo sapiens); further: in the data inactive means no Kd found up to 30 µM
Sequence (Q15375 whole entry): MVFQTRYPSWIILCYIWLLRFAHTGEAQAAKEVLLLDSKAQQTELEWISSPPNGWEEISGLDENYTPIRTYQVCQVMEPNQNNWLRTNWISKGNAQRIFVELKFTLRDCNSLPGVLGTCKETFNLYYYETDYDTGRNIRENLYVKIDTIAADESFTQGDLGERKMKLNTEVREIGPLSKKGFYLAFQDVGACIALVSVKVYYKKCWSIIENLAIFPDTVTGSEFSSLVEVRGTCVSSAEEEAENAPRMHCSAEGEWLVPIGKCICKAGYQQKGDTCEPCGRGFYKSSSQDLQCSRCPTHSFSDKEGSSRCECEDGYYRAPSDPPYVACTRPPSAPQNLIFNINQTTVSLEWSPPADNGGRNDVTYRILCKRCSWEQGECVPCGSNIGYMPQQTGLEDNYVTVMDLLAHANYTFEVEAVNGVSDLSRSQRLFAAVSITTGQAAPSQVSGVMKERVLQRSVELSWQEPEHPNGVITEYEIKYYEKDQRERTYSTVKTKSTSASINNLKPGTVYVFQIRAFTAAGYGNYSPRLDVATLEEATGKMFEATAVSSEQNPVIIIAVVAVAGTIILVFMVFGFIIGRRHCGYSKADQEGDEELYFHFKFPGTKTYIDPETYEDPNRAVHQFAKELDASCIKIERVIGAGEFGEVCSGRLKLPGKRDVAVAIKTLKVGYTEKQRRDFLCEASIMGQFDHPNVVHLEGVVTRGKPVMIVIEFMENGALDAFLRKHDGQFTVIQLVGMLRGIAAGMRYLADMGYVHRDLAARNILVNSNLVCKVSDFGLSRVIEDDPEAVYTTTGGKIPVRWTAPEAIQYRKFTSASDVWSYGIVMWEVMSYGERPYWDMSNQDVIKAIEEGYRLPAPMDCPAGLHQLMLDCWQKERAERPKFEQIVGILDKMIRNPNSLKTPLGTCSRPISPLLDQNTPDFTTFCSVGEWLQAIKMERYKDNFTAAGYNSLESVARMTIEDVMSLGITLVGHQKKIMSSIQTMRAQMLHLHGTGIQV
Activity calls are given as the source filed them.
Log the outcome using a class from active, inactive

Before answering, review these 2 worked examples.
CCS(=O)(=O)c1cccc(-c2cc(C(=O)NC3CCN(C)CC3)c(C)c3[nH]c4ncc(C)cc4c23)c1 [TAK-901] : active
O=C(Nc1nc2cccc(-c3ccc(CN4CCS(=O)(=O)CC4)cc3)n2n1)C1CC1 [FILGOTINIB] : inactive

Query block: Could you please tell me the result logged for Cc1cccc(-c2nn3c(c2-c2ccnc4ccc(C(N)=O)cc24)CCC3)n1 [GALUNISERTIB] in this assay?
Result block: inactive

Query block: NC(=O)Nc1cc(-c2cccc(F)c2)sc1C(=O)N[C@H]1CCCNC1 [AZD-7762] , same question.
Result block: inactive

Query block: NC1(c2ccc(-c3nc4ccn5c(=O)[nH]nc5c4cc3-c3ccccc3)cc2)CCC1 [MK-2206] , same question.
Result block: inactive

Query block: Cn1cnc2c(F)c(Nc3ccc(Br)cc3F)c(C(=O)NOCCO)cc21 [BINIMETINIB] , same question.
Result block: inactive

====

Measured Kd (Cyclin-dependent kinase 6 (Homo sapiens, UniProt Q00534))
Calls of active or inactive are those of the source.

Please review the entries below; each comes with its answer.
CN(C[C@@H]1COCCO1)S(=O)(=O)Nc1ccc2ccc3ncc(-c4cnn(C)c4)cc3c(=O)c2c1 : > 30 µM (inactive)
COCC(=O)NC/C=C/c1ccc2ncnc(Nc3ccc(Oc4ccc(C)nc4)c(C)c3)c2c1 : > 30 µM (inactive)

Please examine the following record next.
Query block: If you can, please state the reported Kd value of CNC(=O)c1ccccc1Sc1ccc2c(/C=C/c3ccccn3)n[nH]c2c1 .
Result block: > 30 µM (inactive)

====

Measured Kd (Serine/threonine-protein kinase Nek3 (Homo sapiens))
Activity calls are given as the source filed them.

C[C@H]1CNCCCN1S(=O)(=O)c1cccc2cncc(F)c12 : > 30 µM (inactive)
NC(=O)Nc1cc(-c2cccc(F)c2)sc1C(=O)N[C@H]1CCCNC1 [AZD-7762] : > 30 µM (inactive)
C[C@@H](N)c1ccc(C(=O)Nc2ccnc3[nH]ccc23)cc1 [Y-39983] : > 30 µM (inactive)
COc1ncc(-c2ccc3nccc(-c4ccnnc4)c3c2)cc1NS(=O)(=O)c1ccc(F)cc1F [OMIPALISIB] : > 30 µM (inactive)
Cn1cc(-c2cnc3ccc4ccc(CS(=O)(=O)NCc5ccccn5)cc4c(=O)c3c2)cn1 [MK-8033] : > 30 µM (inactive)

Query block: If you can, please state the reported Kd value of Cc1cccc(-c2nn3c(c2-c2ccnc4ccc(C(N)=O)cc24)CCC3)n1 [GALUNISERTIB] .
Result block: > 30 µM (inactive)

Query block: COc1cc2c(Nc3ccc(Cl)c(Cl)c3F)ncnc2cc1OC[C@@H]1C[C@@H]2CN(C)C[C@@H]2C1 [TESEVATINIB] , same question.
Result block: > 30 µM (inactive)

Query block: CCn1c(C(=O)N(C2CC2)C2CC2)cc2c3c(ncn3C)c(Nc3cc(C)n(C)n3)nc21 [BMS-911543] , same question.
Result block: > 30 µM (inactive)

====

target: Tyrosine-protein kinase Lck (Homo sapiens); further: in the data inactive means no Kd found up to 30 µM
Sequence (P06239 whole entry): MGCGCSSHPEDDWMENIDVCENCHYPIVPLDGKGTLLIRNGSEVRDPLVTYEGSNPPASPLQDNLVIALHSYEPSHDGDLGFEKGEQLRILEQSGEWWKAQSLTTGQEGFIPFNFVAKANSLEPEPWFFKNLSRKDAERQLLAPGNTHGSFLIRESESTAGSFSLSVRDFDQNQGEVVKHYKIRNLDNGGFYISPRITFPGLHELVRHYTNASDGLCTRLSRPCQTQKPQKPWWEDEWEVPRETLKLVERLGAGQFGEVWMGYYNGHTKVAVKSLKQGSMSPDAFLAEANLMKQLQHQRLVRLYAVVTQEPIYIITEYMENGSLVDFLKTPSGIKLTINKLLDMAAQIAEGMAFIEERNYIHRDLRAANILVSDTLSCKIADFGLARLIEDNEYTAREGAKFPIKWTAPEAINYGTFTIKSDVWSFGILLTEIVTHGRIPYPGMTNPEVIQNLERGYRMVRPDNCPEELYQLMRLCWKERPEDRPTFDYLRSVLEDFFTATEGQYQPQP
The source made the active and inactive calls.
Log the outcome using a class from Y (active), N (inactive)

Query block: Could you please tell me the result logged for Cc1cnc(NC(=O)Nc2cc(Br)c(C)cc2OC[C@@H]2CNCCO2)cn1 [RABUSERTIB] in this assay?
Result block: N

Query block: CN1C/C=C/CCOc2cccc(c2)-c2ccnc(n2)Nc2cccc(c2)C1 [ZOTIRACICLIB] , same question.
Result block: N

Query block: Cn1ncc(Cl)c1-c1cc(C(=O)N[C@H](CN)Cc2ccc(F)c(F)c2)oc1Cl [UPROSERTIB] , same question.
Result block: N

Query block: Cc1nc2cc(-n3ncc(C(=O)c4cc5ccccc5[nH]4)c3N)ccc2[nH]1 [FGFR INHIBITOR DEBIO 1347] , same question.
Result block: N

Query block: O=c1[nH]ccc2cc(OC3CCNCC3)ccc12 [SAR-407899 FREE BASE] , same question.
Result block: N

Query block: C[C@H]1CNCCCN1S(=O)(=O)c1cccc2cncc(F)c12 , same question.
Result block: N

Query block: C[C@@H](Oc1cc(C(=O)Nc2ccc(C(=O)N3CCN(C)CC3)cc2)nnc1N)c1c(Cl)ccc(F)c1Cl , same question.
Result block: N

Query block: CCNC(=O)C#Cc1ccc2c(c1)NC(=O)/C2=C(\Nc1ccc(CN(C)C)cc1)c1ccccc1 , same question.
Result block: Y

Query block: O=C(Nc1c[nH]nc1-c1nc2cc(CN3CCOCC3)ccc2[nH]1)NC1CC1 [AT-9283] , same question.
Result block: Y

Query block: C[C@@H](NC(=O)c1ncnc(N)c1Cl)c1ncc(C(=O)Nc2cc(C(F)(F)F)c(Cl)cn2)s1 [TOVORAFENIB] , same question.
Result block: N

====

target: Ephrin type-B receptor 4 (Homo sapiens, UniProt P54760); further: in the data inactive means no Kd found up to 30 µM
Sequence (P54760 whole entry): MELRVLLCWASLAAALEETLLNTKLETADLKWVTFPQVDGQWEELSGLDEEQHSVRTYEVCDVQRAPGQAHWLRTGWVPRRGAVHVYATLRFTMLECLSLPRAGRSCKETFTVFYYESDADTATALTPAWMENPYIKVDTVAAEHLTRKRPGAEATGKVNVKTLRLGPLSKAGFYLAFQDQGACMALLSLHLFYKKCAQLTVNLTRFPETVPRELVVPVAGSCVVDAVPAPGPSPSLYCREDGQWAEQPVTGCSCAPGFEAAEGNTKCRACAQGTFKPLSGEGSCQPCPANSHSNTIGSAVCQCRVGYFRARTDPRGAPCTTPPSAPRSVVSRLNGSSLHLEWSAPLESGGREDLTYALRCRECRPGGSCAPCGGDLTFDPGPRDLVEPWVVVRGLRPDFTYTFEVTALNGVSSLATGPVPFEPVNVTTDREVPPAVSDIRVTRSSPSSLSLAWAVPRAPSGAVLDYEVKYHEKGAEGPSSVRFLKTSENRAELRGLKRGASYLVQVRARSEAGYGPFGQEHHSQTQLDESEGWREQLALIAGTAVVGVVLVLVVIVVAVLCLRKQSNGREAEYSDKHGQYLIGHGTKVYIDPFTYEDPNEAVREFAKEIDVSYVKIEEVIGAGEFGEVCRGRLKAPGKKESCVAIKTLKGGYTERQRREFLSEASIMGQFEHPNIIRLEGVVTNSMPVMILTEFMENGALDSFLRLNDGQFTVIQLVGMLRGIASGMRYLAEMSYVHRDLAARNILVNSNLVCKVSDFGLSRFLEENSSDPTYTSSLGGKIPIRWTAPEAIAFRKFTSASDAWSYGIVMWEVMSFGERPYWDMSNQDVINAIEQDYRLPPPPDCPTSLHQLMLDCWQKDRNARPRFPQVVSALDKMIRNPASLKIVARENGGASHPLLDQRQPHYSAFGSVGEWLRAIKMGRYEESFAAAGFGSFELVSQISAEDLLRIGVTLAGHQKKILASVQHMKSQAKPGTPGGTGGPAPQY
Where a name gives a salt, the structure may show the parent alone. Activity calls are given as the source filed them.
Log the outcome using a class from label 1 for active, label 0 for inactive

Before answering, review these 5 worked examples.
NC(=O)c1c(OCc2c(F)cc(Br)cc2F)nsc1NC(=O)NCCCCN1CCCC1 : label 0
CCS(=O)(=O)N1CCN(c2ccc(Nc3ncc(C(N)=O)c(NC4CC4)n3)cc2)CC1 [Cerdulatinib Hydrochloride] : label 0
N#CC1(c2ccc(NC(=O)c3cccnc3NCc3ccncc3)cc2)CCCC1 : label 0
Cc1cnc(NC(=O)Nc2cc(Br)c(C)cc2OC[C@@H]2CNCCO2)cn1 : label 0
Cn1cnc2c(F)c(Nc3ccc(Br)cc3F)c(C(=O)NOCCO)cc21 : label 0

Query block: Could you please tell me the result logged for CN1CCN(CCOc2cc(OC3CCOCC3)c3c(Nc4c(Cl)ccc5c4OCO5)ncnc3c2)CC1 in this assay?
Result block: label 1

Query block: Nc1ncnc2c1c(-c1cccc(OCc3ccccc3)c1)cn2[C@H]1C[C@@H](CN2CCC2)C1 , same question.
Result block: label 0

Query block: O=C(Nc1nc2cccc(-c3ccc(CN4CCS(=O)(=O)CC4)cc3)n2n1)C1CC1 , same question.
Result block: label 0

====

biological target: Hepatocyte growth factor receptor (Homo sapiens, UniProt P08581); further: in the data inactive means no Kd found up to 30 µM
Sequence (P08581 whole entry): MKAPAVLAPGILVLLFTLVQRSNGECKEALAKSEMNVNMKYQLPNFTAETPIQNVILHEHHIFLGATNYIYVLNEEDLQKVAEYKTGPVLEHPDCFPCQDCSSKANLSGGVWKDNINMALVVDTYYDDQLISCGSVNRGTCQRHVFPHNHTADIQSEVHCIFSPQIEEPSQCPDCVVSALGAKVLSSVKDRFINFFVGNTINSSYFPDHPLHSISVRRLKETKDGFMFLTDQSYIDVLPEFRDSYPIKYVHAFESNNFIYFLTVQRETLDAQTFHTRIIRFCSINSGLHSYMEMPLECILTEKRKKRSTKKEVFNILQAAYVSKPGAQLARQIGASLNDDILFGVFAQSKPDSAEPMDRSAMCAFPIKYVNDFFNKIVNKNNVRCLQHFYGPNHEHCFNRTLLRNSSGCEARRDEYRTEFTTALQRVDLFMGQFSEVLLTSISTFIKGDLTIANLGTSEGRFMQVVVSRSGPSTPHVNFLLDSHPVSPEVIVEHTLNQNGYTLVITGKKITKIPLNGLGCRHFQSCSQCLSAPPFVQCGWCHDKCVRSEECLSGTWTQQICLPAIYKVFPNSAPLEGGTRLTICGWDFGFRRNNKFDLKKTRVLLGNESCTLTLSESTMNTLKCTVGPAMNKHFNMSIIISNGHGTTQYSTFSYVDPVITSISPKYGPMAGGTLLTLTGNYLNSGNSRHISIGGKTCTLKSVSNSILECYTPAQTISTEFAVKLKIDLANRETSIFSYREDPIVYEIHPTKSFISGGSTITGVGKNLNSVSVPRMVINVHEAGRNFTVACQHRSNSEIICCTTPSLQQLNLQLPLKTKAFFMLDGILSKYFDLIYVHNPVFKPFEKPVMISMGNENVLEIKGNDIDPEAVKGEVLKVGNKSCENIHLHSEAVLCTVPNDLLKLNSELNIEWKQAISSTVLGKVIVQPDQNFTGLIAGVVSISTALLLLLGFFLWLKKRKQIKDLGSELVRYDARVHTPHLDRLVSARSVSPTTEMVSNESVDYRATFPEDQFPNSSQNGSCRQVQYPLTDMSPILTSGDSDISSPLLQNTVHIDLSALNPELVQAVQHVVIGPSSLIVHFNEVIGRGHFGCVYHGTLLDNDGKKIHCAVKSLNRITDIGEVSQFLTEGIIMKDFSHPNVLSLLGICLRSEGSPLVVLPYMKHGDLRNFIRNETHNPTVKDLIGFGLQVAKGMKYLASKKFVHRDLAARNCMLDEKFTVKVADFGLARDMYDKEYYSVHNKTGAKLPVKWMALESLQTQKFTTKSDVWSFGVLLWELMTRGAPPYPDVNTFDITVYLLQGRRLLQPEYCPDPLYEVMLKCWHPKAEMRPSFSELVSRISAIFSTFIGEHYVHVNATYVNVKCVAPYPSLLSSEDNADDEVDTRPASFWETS
Calls of active or inactive are those of the source.
Log the outcome using a class from active, inactive

CNC(=O)c1cc(Oc2ccc(NC(=O)Nc3cc(C(C)(C)C)nn3-c3ccc4ncccc4c3)c(F)c2)ccn1 : active
O=C1NC(=O)[C@@H](c2cn3c4c(cccc24)CCC3)[C@@H]1c1c[nH]c2ccccc12 [TIVANTINIB] : active
CC(C)c1cc(CNc2nc(Nc3cc(C4CC4)[nH]n3)cc(N3CCN(C)CC3)n2)on1 : inactive
N#CC1(c2ccc(NC(=O)c3cccnc3NCc3ccncc3)cc2)CCCC1 : inactive
CN(C[C@@H]1COCCO1)S(=O)(=O)Nc1ccc2ccc3ncc(-c4cnn(C)c4)cc3c(=O)c2c1 : inactive

We now examine a further compound.
Query block: Could you please tell me the result logged for CO[C@H]1C[C@@H]2CC[C@@H](C)[C@@](O)(O2)C(=O)C(=O)N2CCCC[C@H]2C(=O)O[C@H]([C@H](C)C[C@@H]2CC[C@@H](O)[C@H](OC)C2)CC(=O)[C@H](C)/C=C(\C)[C@@H](O)[C@@H](OC)C(=O)[C@H](C)C[C@H](C)/C=C/C=C/C=C/1C in this assay?
Result block: inactive

====

Target: Mitogen-activated protein kinase kinase kinase 5 (Homo sapiens); further: in the data inactive means no Kd found up to 30 µM
Sequence (Q99683 whole entry): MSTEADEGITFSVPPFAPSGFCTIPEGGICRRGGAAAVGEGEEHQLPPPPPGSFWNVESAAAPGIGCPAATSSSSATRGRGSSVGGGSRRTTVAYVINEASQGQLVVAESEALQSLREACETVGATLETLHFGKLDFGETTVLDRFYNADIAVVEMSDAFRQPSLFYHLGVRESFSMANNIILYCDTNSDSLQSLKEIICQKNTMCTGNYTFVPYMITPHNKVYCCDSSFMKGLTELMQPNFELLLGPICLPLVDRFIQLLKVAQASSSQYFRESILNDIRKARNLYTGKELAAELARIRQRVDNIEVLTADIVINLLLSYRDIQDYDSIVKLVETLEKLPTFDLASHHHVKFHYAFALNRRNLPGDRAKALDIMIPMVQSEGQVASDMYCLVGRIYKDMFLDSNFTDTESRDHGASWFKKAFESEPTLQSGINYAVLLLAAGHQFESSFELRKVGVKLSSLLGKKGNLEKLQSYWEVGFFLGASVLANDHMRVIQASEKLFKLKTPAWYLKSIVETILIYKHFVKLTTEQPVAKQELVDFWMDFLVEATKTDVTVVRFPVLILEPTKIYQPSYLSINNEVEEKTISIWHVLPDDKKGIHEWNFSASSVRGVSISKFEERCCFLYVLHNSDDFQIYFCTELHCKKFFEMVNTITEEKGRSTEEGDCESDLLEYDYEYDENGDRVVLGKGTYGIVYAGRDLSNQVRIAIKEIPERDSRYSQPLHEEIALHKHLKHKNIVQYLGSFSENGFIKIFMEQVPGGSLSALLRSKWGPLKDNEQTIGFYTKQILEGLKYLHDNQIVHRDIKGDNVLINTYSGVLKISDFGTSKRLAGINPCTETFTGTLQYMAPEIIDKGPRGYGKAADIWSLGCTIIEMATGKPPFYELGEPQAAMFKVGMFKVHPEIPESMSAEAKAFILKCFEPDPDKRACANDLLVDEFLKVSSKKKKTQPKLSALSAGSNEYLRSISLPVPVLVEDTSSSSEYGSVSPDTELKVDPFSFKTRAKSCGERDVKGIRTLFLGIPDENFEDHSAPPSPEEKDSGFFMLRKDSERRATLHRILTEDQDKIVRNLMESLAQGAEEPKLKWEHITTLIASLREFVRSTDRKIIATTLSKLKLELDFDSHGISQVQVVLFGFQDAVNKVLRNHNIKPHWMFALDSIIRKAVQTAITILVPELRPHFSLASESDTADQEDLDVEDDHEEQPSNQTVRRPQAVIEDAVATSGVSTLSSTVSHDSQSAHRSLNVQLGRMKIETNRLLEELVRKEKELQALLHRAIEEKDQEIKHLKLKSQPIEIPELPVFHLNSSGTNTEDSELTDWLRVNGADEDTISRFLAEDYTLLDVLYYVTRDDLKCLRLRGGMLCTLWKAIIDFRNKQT
The source made the active and inactive calls.
Log the outcome using a class from active, inactive

CCn1cc(-c2ccnc3[nH]c(-c4cccc(CN(C)C)c4)cc23)c(-c2ccc(NC(=O)N(C)C)cc2)n1 [GSK-1070916] : inactive
C[C@@H](N)c1ccc(C(=O)Nc2ccnc3[nH]ccc23)cc1 [Y-39983] : active
Nc1ncnc2c1c(-c1cccc(OCc3ccccc3)c1)cn2[C@H]1C[C@@H](CN2CCC2)C1 [AEW-541] : inactive

We now examine a further compound.
Query block: Could you please tell me the result logged for O=C(Nc1cc(C(F)(F)F)cc(C(F)(F)F)c1)c1cc(Cl)ccc1O [IMD-0354] in this assay?
Result block: inactive
